Origin of the recorded values: patent US6410790B1

Entries and their BTX Binding at 10 μM
System: binding site 2 of the sodium channel
Protocol details: BTX binding, sodium channel
Experimental conditions: 10 μM, percentage inhibition, [3H]-batrachotoxin A20 α-benzoate 10 nM, rat cerebral cortex synaptosomes

Data point: CN(C)C(c1ccccc1)C1CCCCC1(O)Cc1ccc(F)cc1Cl.Cl (stereo not shown) [Example 27] ; BTX Binding at 10 μM = 97%

Notebook: CN(C)C(c1ccccc1)C1CCCCC1(O)c1cccc2c1OCO2.Cl (stereo not shown) [Example 11] , BTX Binding at 10 μM read as 79%

----------
Below is a list of entries, each paired with its recorded Diltiazem Binding at 10 μM value.
Tested on: benzothiazepine binding site of the L-type calcium channel
Protocol details: Diltiazem binding, L calcium channel
Design: species or system rat
Experimental conditions: 10 μM, percentage inhibition, [3H]-cis-(+)-diltiazem 5 nM, rat cerebral cortex membranes
Just the number please, in %, no unit attached.

# annotated cases, reported Diltiazem Binding at 10 μM shown
> print(dat)
                                   molecule                              study.system  assay.value
1  COc1cccc(CC2(O)CCCCC2C(c2ccc(C(F)(F)F)cc2)N(C)C)c1.Cl (stereo not drawn)  benzothiazepine binding site of the L-type calcium channel           72
2  COc1ccc(CC2(O)CCCCC2C(c2ccccc2)N(C)C)cc1.Cl (stereo not drawn)  benzothiazepine binding site of the L-type calcium channel           93
3  CN(C)C(c1cccc(Cl)c1)C1CCCCC1(O)Cc1ccc(C(C)(C)C)cc1.Cl (stereo not drawn)  benzothiazepine binding site of the L-type calcium channel           77
4  CN(C)C(c1cccc(Oc2ccccc2)c1)C1CCCCC1(O)CCc1ccccc1.Cl (stereo not drawn)  benzothiazepine binding site of the L-type calcium channel           98
5  CN(C)C(c1ccccc1)C1CCCCC1(O)Cc1ccc(C(C)(C)C)cc1.Cl (stereo not drawn)  benzothiazepine binding site of the L-type calcium channel           89

Please fill in: Diltiazem Binding at 10 μM reported for CN(C)C(c1ccccc1)C1CCCCC1(O)Cc1ccc(F)cc1F.Cl (stereo not drawn) = 93

response.value for COc1cccc(C(c2ccccc2)(C2CCCCC2(O)Cc2ccccc2)N(C)C)c1.Cl (stereo not drawn) (field: Diltiazem Binding at 10 μM) = 87

----------
Tested on: binding site 2 of the sodium channel
Protocol details: BTX binding, sodium channel
Experimental conditions: 10 μM, percentage inhibition, [3H]-batrachotoxin A20 α-benzoate 10 nM, rat cerebral cortex synaptosomes
Parameter: BTX Binding at 10 μM (%)
Field format: number, assumed %, no unit text.

> print(dat)
                                   compound             parameter  unit.text  assay.value
1  COC(=O)c1ccc(C2(O)CCCCC2C(c2ccccc2)N(C)C)cc1.Cl (centres unmarked) [Example 71]  BTX Binding at 10 μM          %           81
2  COc1cccc(CC2(O)CCCCC2C(c2ccccc2)N(C)C)c1.Cl (centres unmarked) [Example 13]  BTX Binding at 10 μM          %           94
3  CN(C)C(c1ccc(F)cc1)C1CCCCC1(O)Cc1ccccc1.Cl (centres unmarked) [Example 41]  BTX Binding at 10 μM          %           94
4  COc1cccc(CC2(O)CCCCC2C(c2cccc(OC)c2)N(C)C)c1.Cl (centres unmarked) [Example 37]  BTX Binding at 10 μM          %           90

Could you now look at the following compound, please?
Looking up CN(C)C(c1ccccc1)C1CCCCC1(O)c1cccc(F)c1.Cl (centres unmarked) [Example 2] , I see its BTX Binding at 10 μM listed as 80

----------
Study system: NA transporter (Rattus norvegicus, UniProt Q63380)
Construct: synaptosomes are isolated fresh from rat brains; from tissue; host or cells: rat hypothalamus synaptosomes (P2 fraction)
Sequence (Q63380 1-617): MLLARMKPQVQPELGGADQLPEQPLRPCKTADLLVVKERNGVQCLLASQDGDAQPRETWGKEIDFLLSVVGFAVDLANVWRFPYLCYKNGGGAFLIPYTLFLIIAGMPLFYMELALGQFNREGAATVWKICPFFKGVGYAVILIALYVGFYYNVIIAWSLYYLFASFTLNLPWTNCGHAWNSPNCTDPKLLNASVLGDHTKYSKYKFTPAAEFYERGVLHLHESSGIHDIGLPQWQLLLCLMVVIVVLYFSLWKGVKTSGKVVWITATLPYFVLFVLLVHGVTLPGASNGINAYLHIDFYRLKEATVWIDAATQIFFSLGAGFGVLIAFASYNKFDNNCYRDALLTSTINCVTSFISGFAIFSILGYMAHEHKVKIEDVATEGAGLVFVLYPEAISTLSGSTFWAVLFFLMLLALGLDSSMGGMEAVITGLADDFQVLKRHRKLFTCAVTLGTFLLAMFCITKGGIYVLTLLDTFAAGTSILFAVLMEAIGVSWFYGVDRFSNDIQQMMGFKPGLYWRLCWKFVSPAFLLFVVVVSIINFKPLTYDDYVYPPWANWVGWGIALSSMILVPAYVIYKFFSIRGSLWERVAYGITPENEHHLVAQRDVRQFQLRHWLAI
Protocol details: synaptosomal noradrenaline uptake inhibition (NA uptake inhibition)
Type: biochemical
Experimental conditions: read-out: NA Uptake Inhibition at 1 μM, 1 μM in the assay, synaptosomes from rat hypothalamus
Respond with Satisfied for inhibition at 1 µM values of 90% and above, Not satisfied for values below.

Solved cases below.
> print(dat)
                                   molecule                              study.system      class
1  COc1cccc(CC2(O)CCCCC2C(c2cccc(OC)c2)N(C)C)c1.Cl (stereo not shown) [Example 37, hydrochloride]  NA transporter (Rattus norvegicus, UniProt Q63380)  Satisfied
2  CN(C)C(c1ccccc1)C1CCCCC1(O)Cc1ccccc1F.Cl (stereo not shown) [Example 24, hydrochloride]  NA transporter (Rattus norvegicus, UniProt Q63380)  Satisfied
3  CN(C)C(c1ccccc1)C1CCCCC1(O)Cc1ccc(F)cc1F.Cl (stereo not shown) [Example 50, hydrochloride]  NA transporter (Rattus norvegicus, UniProt Q63380)  Satisfied

# check: inhibition at 1 µM of CN(C)C(c1ccccc1)C1CC(c2ccccc2)CCC1(O)Cc1ccccc1.Cl (stereo not shown) [Example 72, hydrochloride] is greater than or equal to 90%
Not satisfied

Given CN(C)C(c1ccccc1)C1CCCCC1(O)Cc1ccc(Cl)cc1Cl.Cl (stereo not shown) [Example 33, hydrochloride] , state whether its inhibition at 1 µM is at least 90%.
Not satisfied

// inclusive: inhibition at 1 µM at least 90%? input: CN(C)C(c1cccc(Oc2ccccc2)c1)C1CCCCC1(O)Cc1cccc(C(F)(F)F)c1.Cl (stereo not shown) [Example 53, hydrochloride]
Not satisfied

----------
Test system: binding site 2 of the sodium channel
Protocol details: BTX binding, sodium channel
Experimental conditions: 10 μM, percentage inhibition, [3H]-batrachotoxin A20 α-benzoate 10 nM, rat cerebral cortex synaptosomes
Binary call on BTX Binding at 10 μM: satisfied from 90% upward, not satisfied beneath that.

Completed entries (count: 4):
> print(dat)
                                   compound                          study.system      class
1  CN(C)C(c1ccc(Br)cc1)C1CCCCC1(O)Cc1ccccc1.Cl (stereo not shown)  binding site 2 of the sodium channel  satisfied
2  CN(C)C(c1ccccc1)C1CCCCC1(O)Cc1ccc(C(C)(C)C)cc1.Cl (stereo not shown)  binding site 2 of the sodium channel  satisfied
3  CN(C)C(c1ccc(Cl)c(Cl)c1)C1CCCCC1(O)CCc1ccccc1.Cl (stereo not shown)  binding site 2 of the sodium channel  satisfied
4  CN(C)C(c1cccs1)C1CCCCC1(O)Cc1cccc(C(F)(F)F)c1.Cl (stereo not shown)  binding site 2 of the sodium channel  satisfied

Quick check: does CN(C)C(c1ccc(Cl)cc1)C1CCCCC1(O)c1ccc(C(F)(F)F)cc1.Cl (stereo not shown) have BTX Binding at 10 μM greater than or equal to 90%?
satisfied

Could you tell me if the measured BTX Binding at 10 μM of COc1cccc(C(C2CCCCC2(O)c2ccc3c(c2)OCO3)N(C)C)c1.Cl (stereo not shown) reaches 90% or more?
not satisfied

Textbook exercise: given the entry CN(C)C(c1ccccc1)C1CCCCC1(O)Cc1ccc(Cl)cc1Cl.Cl (stereo not shown) , state whether its BTX Binding at 10 μM is greater than or equal to 90%.
satisfied

# bool: BTX Binding at 10 μM of CN(C)C(c1ccccc1Cl)C1CCCCC1(O)c1ccc2ccccc2c1.Cl (stereo not shown) >= 90%
satisfied

hey, is BTX Binding at 10 μM for this one >= 90%? CN(C)C(c1cccc(Oc2ccccc2)c1)C1CCCCC1(O)Cc1cccc(C(F)(F)F)c1.Cl (stereo not shown)
satisfied

Decide: is the reported value of BTX Binding at 10 μM for CN(C)C(c1ccccc1)C1CCCCC1(O)Cc1cc(F)ccc1F.Cl (stereo not shown) equal to or greater than 90%?
satisfied

Decide: BTX Binding at 10 μM of CN(C)C(c1ccccc1)C1CCCCC1(O)c1ccc(O)cc1.Cl (stereo not shown) >= 90%?
not satisfied

Is the recorded value of BTX Binding at 10 μM equal to or greater than 90% for this compound? CN(C)C(c1ccc(Cl)cc1)C1CCCCC1(O)Cc1cccc(C(F)(F)F)c1.Cl (stereo not shown)
satisfied

Check if BTX Binding at 10 μM >= 90% (inclusive). Item: CN(C)CC1CCCCC1(O)c1ccc(Cl)cc1Cl.Cl (stereo not shown)
satisfied

Textbook exercise: given the entry CN(C)C(c1c(F)c(F)c(F)c(F)c1F)C1CCCCC1(O)Cc1ccccc1.Cl (stereo not shown) , state whether its BTX Binding at 10 μM is greater than or equal to 90%.
not satisfied

Dear colleague, could you confirm whether CN(C)C(c1ccccc1)C1CCCCC1(O)Cc1ccccc1Cl.Cl (stereo not shown) has BTX Binding at 10 μM at or above 90%?
satisfied

Does the compound CN(C)C(c1ccccc1)C1CCCCC1(O)c1ccc(F)cc1.Cl (stereo not shown) have recorded BTX Binding at 10 μM that is 90% or more?
not satisfied

Dear colleague, could you confirm whether CN(C)C(c1ccccc1Cl)C1CCCCC1(O)CCc1ccc(F)cc1.Cl (stereo not shown) has BTX Binding at 10 μM at or above 90%?
satisfied

Evaluate COc1cccc(CC2(O)CCCCC2C(c2ccc(C(F)(F)F)cc2)N(C)C)c1.Cl (stereo not shown) : BTX Binding at 10 μM at minimum 90%?
satisfied

Hello, I need to know if COc1ccc(OC)c(C2(O)CCCCC2C(c2ccccc2)N(C)C)c1.Cl (stereo not shown) has measured BTX Binding at 10 μM not below 90%. Thanks!
not satisfied

Threshold query (BTX Binding at 10 μM >= 90%) on CN(C)C(c1ccccc1)C1CCCCC1(O)c1ccc(Br)cc1.Cl (stereo not shown)
satisfied

Is reported BTX Binding at 10 μM greater than or equal to 90% here: Cc1ccccc1C(C1CCCCC1(O)Cc1ccccc1)N(C)C.Cl (stereo not shown)
satisfied

Would you say CN(C)C(c1ccccc1Cl)C1CCCCC1(O)Cc1ccccc1Cl.Cl (stereo not shown) shows BTX Binding at 10 μM at minimum 90%?
satisfied

Exam item: decide whether the reported BTX Binding at 10 μM for CN(C)C(c1ccccc1)C1CCCCC1(O)Cc1ccc(OC(F)(F)F)cc1.Cl (stereo not shown) is at least 90%.
satisfied

Exam item: decide whether the reported BTX Binding at 10 μM for CN(C)C(c1ccccc1)C1CCCCC1(O)c1ccccc1.Cl (stereo not shown) is at least 90%.
not satisfied

hey, is BTX Binding at 10 μM for this one >= 90%? CN(C)C(c1ccccc1)C1CCCCC1(O)Cc1cccc(Cl)c1.Cl (stereo not shown)
satisfied

Textbook exercise: given the entry CN(C)C(c1ccccc1)C1CCCCC1(O)c1cccc2ccccc12.Cl (stereo not shown) , state whether its BTX Binding at 10 μM is greater than or equal to 90%.
satisfied

For this compound, is measured BTX Binding at 10 μM 90% or higher? CN(C)C(c1ccccc1)C1CCCCC1(O)C1CCCCC1.Cl (stereo not shown)
satisfied

hey, is BTX Binding at 10 μM for this one >= 90%? CCCCC1(O)CCCCC1C(c1ccccc1)N(C)C.Cl (stereo not shown)
satisfied

Hello, I need to know if CN(C)C(c1ccccc1)C1CCCCC1(O)Cc1c(F)cccc1Cl.Cl (stereo not shown) has measured BTX Binding at 10 μM not below 90%. Thanks!
satisfied

Confirm if BTX Binding at 10 μM reported for the compound CN(C)C(c1ccc(F)cc1)C1CCCCC1(O)Cc1cccc(C(F)(F)F)c1.Cl (stereo not shown) is 90% or above.
satisfied
